Hello, the source for this data is PubChem BioAssay (EPA / NIEHS), in case you need it.

- Read-out: Secreted IgG (sIgG), gene 3500
- Assay Comment: BSK_BT_sIgG: BioMAP Diversity Plus: BT Assay for Secreted IgG (sIgG) Biomarker Activity (AID 2284226)
- Condition Parameters: primary human B cells with PBMC
The source made the active and inactive calls. Rule for the calls: active = hit-call score of the fitted dose curve at least 0.9, where 1 is the maximum; inactive = score below 0.9.
Just give me one of these, please: 1.0 (active), 0.0 (inactive)

Please review the following examples before continuing.
compound="C=CC(=O)OCC(Br)CBr (stereo not drawn)" cat=1.0
compound=CCOc1nc(F)cc2nc(S(=O)(=O)Nc3c(Cl)cccc3C(=O)OC)nn12 cat=0.0
compound=CCCCCCCCCCCCCCCC[N+](C)(C)CC cat=1.0
compound=c1ccc(-c2ccccn2)nc1 cat=1.0
compound=O=C(Cl)c1cc(C(=O)Cl)cc(C(=O)Cl)c1 cat=1.0
compound="C=CCOCC(O)CCl (stereo not drawn)" cat=1.0
compound=CCO[Si](CCCN=C=O)(OCC)OCC cat=0.0

Data request: Fill in: this test's call for "C=CC=CC=CCCCCC" is ___
Data returned: 1.0

----------
- Assay Comment: BSK_3C_SRB: Viability Assessment in the BioMAP Diversity Plus: 3C Assay (AID 2283023);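 note: cells read 24 h after compound dosing; fitted both ways against DMSO so a hit may be signal rise or drop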
- Condition Parameters: primary human endothelial cells (HUVEC)
Activity calls are given as the source filed them. The calls were made as follows: active = hit-call score of the fitted dose curve at least 0.9, where 1 is the maximum; inactive = score below 0.9.
The reply should be one of these categories: active, inactive

compound=CCCCCCCCc1ccc(Nc2ccc(CCCCCCCC)cc2)cc1 cat=inactive
compound=C=CC=CC=CCCCCC cat=inactive
compound="CCCCC(CC)COCC1CO1 (stereo unspecified)" cat=inactive

Data request: Just curious, what result did "N#[N+]c1ccc2c(S(=O)(=O)[O-])cccc2c1O" get here?
Data returned: inactive

Data request: In this assay, the call recorded for "c1ccc2c(c1)ccc1ncccc12" was what?
Data returned: active

Data request: Dear colleague, could you share the recorded outcome for "CC(C)(c1cc(Br)c(OCCO)c(Br)c1)c1cc(Br)c(OCCO)c(Br)c1" when you have a moment?
Data returned: active

----------
- Assay Comment: BSK_hDFCGF_SRB: Viability Assessment in the BioMAP Diversity Plus: hDFCGF Assay (AID 2283061);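 note: cells exposed to compound for 24 h before the read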
- Condition Parameters: primary human foreskin fibroblasts
The source made the active and inactive calls. The calls were made as follows: active = hit-call score of the fitted dose curve at least 0.9, where 1 is the maximum; inactive = score below 0.9.
Assay Endpoint: AC50

compound="CC1OC1C1CCC2(C)OC2C1 (stereo not drawn)" value=inactive
compound=CCCCNc1ccc(NCCCC)c2c1C(=O)c1ccccc1C2=O value=inactive
compound=CCCCCCCCc1ccc(Nc2ccc(CCCCCCCC)cc2)cc1 value=inactive
compound=C=C[Si](OC(C)=O)(OC(C)=O)OC(C)=O value=inactive
compound="C=CC(=O)OCC(Br)CBr (stereo not drawn)" value="9.67 µM (active)"

Data request: Entry "c1ccc2c(c1)ccc1ncccc12" : reported AC50 = ?
Data returned: inactive

Data request: Suppose we examine the compound "O=C(c1ccc(O)cc1)c1ccc(O)cc1O" ; what AC50 value has been reported?
Data returned: inactive

Data request: Endpoint output: AC50 of CN1C(=O)N(C)C(O)C1O (stereo not drawn) . Value?
Data returned: inactive

Data request: Consider the compound shown here: "N#[N+]c1ccc2c(S(=O)(=O)[O-])cccc2c1O" What is its recorded AC50?
Data returned: inactive

Data request: Given the entry "C=CC=CC=CCCCCC" , report its measured AC50.
Data returned: inactive

----------
- Assay Comment: ATG_ERE_CIS: Attagene CIS-FACTORIAL HepG2 Assay for Estrogen Response Element (ERE) (AID 2282940)
- Condition Parameters: HepG2 ERE cis-reporter, Attagene RNA transcript; actives raise or lower the signal
Activity calls are given as the source filed them. Rule for the calls: active = hit-call score of the fitted dose curve at least 0.9, where 1 is the maximum; inactive = score below 0.9.
Assay Endpoint: AC50

Reference set, count: 5
compound=OC1CCCC1 assay_endpoint=AC50 value=inactive
compound=O=c1[nH]c(=O)c2[nH]c(=O)[nH]c2[nH]1 assay_endpoint=AC50 value=inactive
compound=CC(C)c1ccc2c(C(C)C)cc(C(C)C)c(S(=O)(=O)O)c2c1 assay_endpoint=AC50 value="49.7 µM (active)"
compound="CCCCCCOC(=O)C(C)CC (configuration not stated)" assay_endpoint=AC50 value=inactive
compound=O=C1CCCCCCCCCCCCCCCO1 assay_endpoint=AC50 value=inactive

Data request: Please report the recorded AC50 for "O=[N+]([O-])c1ccc(CO)cc1" .
Data returned: inactive

Data request: Need AC50 of "CCOC(=O)[C@H](C)O" , thanks.
Data returned: inactive

Data request: Which AC50 value belongs to CC(C)(C)C1CCCCC1=O (configuration not stated) ?
Data returned: inactive

Data request: Record request: AC50 value, item "CCCCCCCC/C=C\CCCCCCCC(=O)OCCO"
Data returned: inactive

Data request: Sample "Nc1ccc(N)c(Cl)c1" — what was its AC50?
Data returned: 2.65 µM (active)

Data request: Requested read-out: AC50. Entry: "CCCCCCCCCCCCCCCCCC#N"
Data returned: inactive

Data request: Find the recorded AC50 belonging to "CCN(Cc1cccc(S(=O)(=O)O)c1)c1ccc(C(=C2C=CC(=[N+](CC)Cc3cccc(S(=O)(=O)[O-])c3)C=C2)c2ccccc2)cc1" and report it.
Data returned: inactive

Data request: Recorded AC50 for "O=Cc1ccc(CO)o1" , please?
Data returned: inactive

Data request: AC50 lookup needed for "[Cl][In]([Cl])[Cl]" , thanks.
Data returned: 163 µM (active)

Data request: # AC50 lookup, item CC(C)(Oc1ccc(C2CC2(Cl)Cl)cc1)C(=O)O (configuration not stated)
Data returned: inactive

Data request: Entry under review: "CC(C)=CCC[C@H](C)CCO" . Reported AC50?
Data returned: inactive

Data request: Entry c1cc(N(CC2CO2)CC2CO2)ccc1OCC1CO1 (configuration not stated) : reported AC50 = ?
Data returned: inactive

Data request: Report AC50 for "CCCCCCCCc1ccc(Nc2ccc(CCCCCCCC)cc2)cc1" please.
Data returned: inactive

Data request: Could you share which AC50 value was measured for "Cc1cc(C)c(C)c(O)c1" ?
Data returned: inactive

Data request: Given the entry C=C1C2CCC(C2)C1(C)C (configuration not stated) , report its measured AC50.
Data returned: inactive

Data request: Item "Nc1ccc(Cl)cc1Cl" has what recorded AC50?
Data returned: inactive

Data request: Would you mind telling me what AC50 value was observed for "CCCCCCCCCCc1ccccc1" ?
Data returned: inactive

Data request: Dear colleague, I am looking for the recorded AC50 of the following compound: "Cc1cccc(N)n1"
Data returned: inactive

Data request: Name the reported AC50 value associated with the compound "CCOC(=O)c1ccc(N(C)C)cc1"
Data returned: inactive

Data request: What measured AC50 goes with CC1=NC(C)OC1C (configuration not stated) ?
Data returned: inactive

Data request: Need AC50 of "CCCC(=O)OCc1ccccc1" , thanks.
Data returned: inactive

Data request: Item "O=c1n(CCO)c(=O)n(CCO)c(=O)n1CCO" has what recorded AC50?
Data returned: inactive

----------
- Target: Nucleoli Translocation, AR (gene 367) (UniProt P10275)
- Sequence (P10275 whole entry, looked up): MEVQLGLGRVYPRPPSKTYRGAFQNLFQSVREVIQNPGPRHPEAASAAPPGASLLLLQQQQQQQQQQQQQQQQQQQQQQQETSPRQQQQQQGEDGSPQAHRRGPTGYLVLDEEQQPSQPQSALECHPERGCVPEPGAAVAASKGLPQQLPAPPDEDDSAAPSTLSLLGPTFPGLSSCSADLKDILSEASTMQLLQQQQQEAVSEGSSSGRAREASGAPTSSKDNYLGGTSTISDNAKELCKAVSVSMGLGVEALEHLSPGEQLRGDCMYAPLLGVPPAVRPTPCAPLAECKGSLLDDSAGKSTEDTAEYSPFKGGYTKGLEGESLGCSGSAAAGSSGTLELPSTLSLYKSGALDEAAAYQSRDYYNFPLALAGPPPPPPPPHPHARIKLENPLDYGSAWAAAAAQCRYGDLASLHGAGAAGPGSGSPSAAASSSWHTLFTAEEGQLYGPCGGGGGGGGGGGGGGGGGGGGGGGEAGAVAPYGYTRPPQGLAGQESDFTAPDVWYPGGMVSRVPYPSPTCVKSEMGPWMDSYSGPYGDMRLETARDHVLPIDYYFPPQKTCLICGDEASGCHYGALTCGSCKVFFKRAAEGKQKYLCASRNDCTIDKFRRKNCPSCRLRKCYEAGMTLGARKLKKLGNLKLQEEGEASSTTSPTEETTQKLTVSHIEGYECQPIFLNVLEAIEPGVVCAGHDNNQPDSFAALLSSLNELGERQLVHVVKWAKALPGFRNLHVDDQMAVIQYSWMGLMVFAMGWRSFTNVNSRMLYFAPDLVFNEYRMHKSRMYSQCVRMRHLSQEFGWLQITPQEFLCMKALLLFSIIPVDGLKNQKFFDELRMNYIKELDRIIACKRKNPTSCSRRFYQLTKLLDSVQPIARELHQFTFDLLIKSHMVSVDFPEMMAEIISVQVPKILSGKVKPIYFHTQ
- Assay Comment: UPITT_HCI_U2OS_AR_TIF2_Nucleoli_Antagonist: University of Pittsburgh U2OS Androgen Receptor-Transcriptional Intermediary Factor 2 (AR-TIF2) Antagonism High Content Imaging Assay for Nucleoli Translocation (AID 2283997)
Inconclusive results are not listed. The source made the active and inactive calls. Rule for the calls: active = hit-call score of the fitted dose curve at least 0.9, where 1 is the maximum; inconclusive = response in the unintended direction; inactive = score below 0.9.
Outcomes you can answer with include only these: Yes for active, No for inactive

Illustrative cases are given below, each with its answer.
molecule="CC(CC=O)CCCC(C)(C)O (configuration not stated)" cat=No
molecule=CCCc1ccc(OC)cc1 cat=No
molecule=CCCCC/C=C\CCC=O cat=No

Data request: Can you look up the reported call for "Oc1ccc(Cl)cc1Cc1cc(Cl)ccc1O" for me?
Data returned: Yes

Data request: What was the test verdict on "CC(C)c1ccc2c(C(C)C)cc(C(C)C)c(S(=O)(=O)O)c2c1" ?
Data returned: No

Data request: // outcome(item) with item = "CC(C)c1ccc2cc(C(C)C)ccc2c1"
Data returned: No

Data request: Give the logged outcome of this assay for the following molecule: "CC(C)=CCC[C@H](C)CCO"
Data returned: No

----------
- Test system: TTR (gene 7276)
- Assay Comment: CCTE_GLTED_hTTR_0.125uM: CCTE's human Transthyretin (hTTR) Inhibition Assay, with 0.125uM TTR, Great Lakes Toxicology and Ecology Division (GLTED) Lab (AID 2284431);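 note: hits lower the fluorescence signal relative to DMSO baseline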
The source made the active and inactive calls. How the source made its calls: active means hit-call score of the fitted dose curve at least 0.9, where 1 is the maximum; inactive means score below 0.9.
Assay Endpoint: AC50

These recorded examples may help you get a feel for the data.
compound="CC1=NN(c2cc(S(=O)(=O)O)ccc2Cl)C(=O)C1N=Nc1ccccc1 (stereo not drawn)" target="TTR (gene 7276)" value="5.76 µM (active)"
compound=CCCCC/C=C\C/C=C\CCCCCCCC(=O)OC target="TTR (gene 7276)" value="9.84 µM (active)"
compound=O=c1cc(-c2ccccc2)oc2ccccc12 target="TTR (gene 7276)" value="10.8 µM (active)"

Data request: # lookup: AC50 of CCCCC(CC)CCC(CC(C)C)OS(=O)(=O)O (stereo not drawn)
Data returned: 0.382 µM (active)

Data request: Find the recorded AC50 belonging to "O=S1(=O)OC(c2ccc(O)cc2)(c2ccc(O)cc2)c2ccccc21" and report it.
Data returned: 3.34 µM (active)
